B1: HEEH_KT_rd6_3632 (parent)
chain: DAEELIELVERALKEGREIILLGVRITSEEAGKWFIEWIRRFL

variants of: B1; assay: folding stability dG (cDNA display proteolysis); higher = more stable; details: PBS, room temperature
assay_readout: folding stability dG (kcal/mol)

sequence_entry	unit_descriptor	reading
DAEELIELVERALKEGREIILLGVRITSEEAGKWFIEWIRRML	kcal/mol	3.76
DAEELIELVERALKEGREIILLGVRITSEESGKWFIEWIRRFL	kcal/mol	3.65
DAEELIELVERALKEGREIILLGVRITIEEAGKWFIEWIRRFL	kcal/mol	3.46
DAEELIELVERALKEGREIIRLGVRITSEEAGKWFIEWIRRFL	kcal/mol	3.14
DAEELIELVERALKKGREIILLGVRITSEEAGKWFIEWIRRFL	kcal/mol	3.45
DAEELIELVERALKEGRVIILLGVRITSEEAGKWFIEWIRRFL	kcal/mol	3.91
DAEELIELVERALKLGREIILLGVRITSEEAGKWFIEWIRRFL	kcal/mol	3.58
DAVELIELVERALKEGREIILLGVRITSEEAGKWFIEWIRRFL	kcal/mol	3.78
DAEELIELVERALKEGRHIILLGVRITSEEAGKWFIEWIRRFL	kcal/mol	3.85
DAGELIELVERALKEGREIILLGVRITSEEAGKWFIEWIRRFL	kcal/mol	3.69
DAEELIELVERALKEGREIILLGVRITSEEAGKWFIEWILRFL	kcal/mol	3.83
DAEELIELVERALKEGREIILLGVRITSEEAGGWFIEWIRRFL	kcal/mol	3.34
DAEELIELVERALKEGREIILLGVRITSEEVGKWFIEWIRRFL	kcal/mol	4.27
